tested on: HT29 colon; assay: NCI tumour cell line growth inhibition, 48 h; in the data active = GI50 below about 0.43 µM; inactive = the rest
Outcome field: choose from active, inactive

Worked cases, answers included:
molecule	answer-label
CNCCn1c(=O)c2cc(OC)c(OC)cc2c2cnc3cc4c(cc3c21)OCO4	active
NCCCOc1cc2ccccc2cc1C(=O)NCCCOc1cc2ccccc2cc1C(=O)Nc1ccc(Cl)cc1O	active
CN1C(NNC(=O)c2cccnc2)=NS(=O)(=O)c2cc(Cl)ccc21	inactive

Which outcome did this test record for the molecule CNC(C)[C@H]1CCC2C3CC=C4C(=O)[C@@H](NC(=O)C=C(C)C)CC[C@]4(C)C3CC[C@@]21C (stereo partly drawn) ?
active

Which outcome did this test record for the molecule O=C(CCN1CCOCC1)Nc1cccc(-n2cc(-c3ccncc3)c(-c3ccc(Cl)c(O)c3)n2)c1 ?
inactive

Which outcome did this test record for the molecule CCC[CH2][Sn]1([CH2]CCC)[O]CC(COc2c(Cl)cc(Cl)cc2Cl)[O]1 (stereo not drawn) ?
inactive

Which outcome did this test record for the molecule Cn1cc(S(=O)(=O)N2CCC3=Cc4c(cnn4-c4ccc(F)cc4)C[C@]3(C(=O)c3cc(C(F)(F)F)ccn3)C2)cn1 ?
inactive

Which outcome did this test record for the molecule COc1cc(/C=C/C(=O)C(C(=O)/C=C/c2ccc(OC(=O)CCNC34CC5CC(CC(C5)C3)C4)c(OC)c2)C(=O)CCNC23CC4CC(CC(C4)C2)C3)ccc1OC(=O)CCNC12CC3CC(CC(C3)C1)C2 (stereo not drawn) ?
inactive
